- experimental-system: PIP4K2C (human)
- assay-notes: KINOMEscan competition binding
- test-settings: compound 10.0 µM
# maps each entry to its kinase still bound, per cent of control
outcome-measure: kinase still bound, per cent of control (%)

>  <structure-notation>
O=C(O)c1ccc(Nc2ncc3c(n2)-c2ccc(Cl)cc2C(c2c(F)cccc2F)=NC3)cc1

>  <experimental-system>
PIP4K2C (human)

>  <outcome-measure>
kinase still bound, per cent of control

>  <reported>
26

$$$$
>  <structure-notation>
COc1cc(N2CCN(C)CC2)ccc1Nc1nc(N)c(C(=O)c2c(Cl)cccc2Cl)s1

>  <experimental-system>
PIP4K2C (human)

>  <outcome-measure>
kinase still bound, per cent of control

>  <reported>
46

$$$$
>  <structure-notation>
Cc1cc([C@@H](C)Nc2ccccc2C(=O)O)c2nc(N3CCOCC3)cc(=O)n2c1

>  <experimental-system>
PIP4K2C (human)

>  <outcome-measure>
kinase still bound, per cent of control

>  <reported>
58

$$$$
>  <structure-notation>
CN(C)C/C=C/C(=O)Nc1cccc(Nc2ncc3c(n2)N(C)c2ccccc2C(=O)N3C)c1

>  <experimental-system>
PIP4K2C (human)

>  <outcome-measure>
kinase still bound, per cent of control

>  <reported>
6

$$$$
>  <structure-notation>
CCC(=O)N1CCN(c2ccc(-n3c(=O)ccc4cnc5ccc(-c6cnc7ccccc7c6)cc5c43)cc2C(F)(F)F)CC1

>  <experimental-system>
PIP4K2C (human)

>  <outcome-measure>
kinase still bound, per cent of control

>  <reported>
58

$$$$

---

- experimental-system: INSR (human)
- assay-notes: KINOMEscan competition binding
- test-settings: compound 10.0 µM

>  <molecule>
Cc1cc([C@@H](C)Nc2ccccc2C(=O)O)c2nc(N3CCOCC3)cc(=O)n2c1

>  <kinase still bound, per cent of control>
100%

$$$$
>  <molecule>
CCCS(=O)(=O)Nc1ccc(F)c(C(=O)c2c[nH]c3ncc(-c4ccc(Cl)cc4)cc23)c1F

>  <kinase still bound, per cent of control>
78%

$$$$
>  <molecule>
C[C@@H](Oc1cc(-n2cnc3ccc(CN4CCN(C)CC4)cc32)sc1C(N)=O)c1ccccc1C(F)(F)F

>  <kinase still bound, per cent of control>
100%

$$$$
>  <molecule>
O=C(O)c1ccc(Nc2ncc3c(n2)-c2ccc(Cl)cc2C(c2c(F)cccc2F)=NC3)cc1

>  <kinase still bound, per cent of control>
59%

$$$$
>  <molecule>
COc1cc(C(=O)NC2CCN(C)CC2)ccc1Nc1ncc2c(n1)N(C1CCCC1)C(C)CC(=O)N2C (stereo not given)

>  <kinase still bound, per cent of control>
100%

$$$$

---

- experimental-system: ADCK3 (human)
- assay-notes: KINOMEscan competition binding
- test-settings: compound 10.0 µM
Parameter kinase still bound, per cent of control: see the listing below.

>  <compound>
CN(C)C/C=C/C(=O)Nc1cccc(Nc2ncc3c(n2)N(C)c2ccccc2C(=O)N3C)c1

>  <kinase still bound, per cent of control / %>
74

$$$$
>  <compound>
CC[C@@H]1C(=O)N(C)c2cnc(Nc3ccc(C(=O)NC4CCN(C)CC4)cc3OC)nc2N1C1CCCC1

>  <kinase still bound, per cent of control / %>
100

$$$$
>  <compound>
OCCCNc1cc(-c2ccnc(Nc3cccc(Cl)c3)n2)ccn1

>  <kinase still bound, per cent of control / %>
100

$$$$
>  <compound>
COc1cc(C(=O)NC2CCN(C)CC2)ccc1Nc1ncc2c(n1)N(C1CCCC1)C(C)CC(=O)N2C (stereo unspecified)

>  <kinase still bound, per cent of control / %>
100

$$$$
>  <compound>
CCOc1cc2ncc(C#N)c(Nc3ccc(OCc4ccccn4)c(Cl)c3)c2cc1NC(=O)/C=C/CN(C)C

>  <kinase still bound, per cent of control / %>
95

$$$$
>  <compound>
C=CC(=O)Nc1cc(NC(=O)c2ccc(C)c(NC(=O)c3ccno3)c2)cc(C(F)(F)F)c1

>  <kinase still bound, per cent of control / %>
100

$$$$
>  <compound>
N#Cc1c(NC(=O)c2cccc3ccccc23)sc2c1CCCC2

>  <kinase still bound, per cent of control / %>
100

$$$$
>  <compound>
Cn1c(=O)n(-c2ccc(C(C)(C)C#N)cc2)c2c3cc(-c4cnc5ccccc5c4)ccc3ncc21

>  <kinase still bound, per cent of control / %>
100

$$$$
>  <compound>
CCCS(=O)(=O)Nc1ccc(F)c(C(=O)c2c[nH]c3ncc(-c4ccc(Cl)cc4)cc23)c1F

>  <kinase still bound, per cent of control / %>
100

$$$$
>  <compound>
O=C(NC1CC1)c1cccc(-c2ccc3c(NC(=O)C4CC4)n[nH]c3c2)c1

>  <kinase still bound, per cent of control / %>
78

$$$$
>  <compound>
O=C(O)c1ccc(Nc2ncc3c(n2)-c2ccc(Cl)cc2C(c2c(F)cccc2F)=NC3)cc1

>  <kinase still bound, per cent of control / %>
88

$$$$
>  <compound>
O=C1Nc2ccc(I)cc2/C1=C/c1cc(Br)c(O)c(Br)c1

>  <kinase still bound, per cent of control / %>
100

$$$$
>  <compound>
Nc1ccc(-c2ccc3ncc4ccc(=O)n(-c5cccc(C(F)(F)F)c5)c4c3c2)cn1

>  <kinase still bound, per cent of control / %>
88

$$$$
>  <compound>
CCC(=O)N1CCN(c2ccc(-n3c(=O)ccc4cnc5ccc(-c6cnc7ccccc7c6)cc5c43)cc2C(F)(F)F)CC1

>  <kinase still bound, per cent of control / %>
17

$$$$
>  <compound>
CCN1CCN(Cc2ccc(Nc3ncc4c(n3)N(C)c3ccccc3C(=O)N4C)cc2C(F)(F)F)CC1

>  <kinase still bound, per cent of control / %>
78

$$$$
>  <compound>
Cc1ccc(NC(=O)c2cccc(C(C)(C)C#N)c2)cc1Nc1ccc2ncn(C)c(=O)c2c1

>  <kinase still bound, per cent of control / %>
100

$$$$

---

kinase still bound, per cent of control values by entry
- experimental-system: FGFR1 (human) (UniProt P11362)
- Sequence (P11362 whole entry, looked up): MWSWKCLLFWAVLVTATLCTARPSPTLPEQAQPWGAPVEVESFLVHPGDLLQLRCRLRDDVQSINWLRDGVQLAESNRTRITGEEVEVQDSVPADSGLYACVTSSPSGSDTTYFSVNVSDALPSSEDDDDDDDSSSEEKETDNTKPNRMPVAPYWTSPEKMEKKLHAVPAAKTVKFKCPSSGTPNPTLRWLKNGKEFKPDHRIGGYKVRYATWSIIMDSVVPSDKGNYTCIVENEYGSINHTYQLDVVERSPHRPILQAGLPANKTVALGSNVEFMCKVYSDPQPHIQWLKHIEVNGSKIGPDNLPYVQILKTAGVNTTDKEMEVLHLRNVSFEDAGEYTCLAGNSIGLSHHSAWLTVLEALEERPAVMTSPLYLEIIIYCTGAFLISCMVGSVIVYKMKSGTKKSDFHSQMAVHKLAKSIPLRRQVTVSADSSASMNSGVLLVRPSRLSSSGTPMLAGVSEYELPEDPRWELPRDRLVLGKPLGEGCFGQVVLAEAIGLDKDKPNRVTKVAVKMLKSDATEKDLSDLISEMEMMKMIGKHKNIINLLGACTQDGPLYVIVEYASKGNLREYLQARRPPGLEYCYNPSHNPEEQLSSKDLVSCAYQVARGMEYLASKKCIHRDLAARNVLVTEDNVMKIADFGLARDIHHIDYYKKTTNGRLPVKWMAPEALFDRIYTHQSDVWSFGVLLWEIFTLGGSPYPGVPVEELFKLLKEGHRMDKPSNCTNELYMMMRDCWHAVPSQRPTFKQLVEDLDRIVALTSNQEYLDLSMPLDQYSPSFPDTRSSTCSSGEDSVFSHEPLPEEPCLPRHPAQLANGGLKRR
- assay-notes: KINOMEscan competition binding
- test-settings: compound 10.0 µM

>  <structure-notation>
N#Cc1c(NC(=O)c2cccc3ccccc23)sc2c1CCCC2

>  <kinase still bound, per cent of control>
99%

$$$$
>  <structure-notation>
Cn1c(=O)n(-c2ccc(C(C)(C)C#N)cc2)c2c3cc(-c4cnc5ccccc5c4)ccc3ncc21

>  <kinase still bound, per cent of control>
100%

$$$$
>  <structure-notation>
C=CC(=O)Nc1cc(NC(=O)c2ccc(C)c(NC(=O)c3ccno3)c2)cc(C(F)(F)F)c1

>  <kinase still bound, per cent of control>
100%

$$$$
>  <structure-notation>
COc1cc(C(=O)NC2CCN(C)CC2)ccc1Nc1ncc2c(n1)N(C1CCCC1)CCC(=O)N2C(C)C

>  <kinase still bound, per cent of control>
100%

$$$$
>  <structure-notation>
Cc1ccc2nc(NCCN)c3ncc(C)n3c2c1

>  <kinase still bound, per cent of control>
100%

$$$$
>  <structure-notation>
O=C(NOC[C@H](O)CO)c1ccc(F)c(F)c1Nc1ccc(I)cc1F

>  <kinase still bound, per cent of control>
100%

$$$$
>  <structure-notation>
Nc1ccc(-c2ccc3ncc4ccc(=O)n(-c5cccc(C(F)(F)F)c5)c4c3c2)cn1

>  <kinase still bound, per cent of control>
95%

$$$$
>  <structure-notation>
OCCCNc1cc(-c2ccnc(Nc3cccc(Cl)c3)n2)ccn1

>  <kinase still bound, per cent of control>
100%

$$$$
>  <structure-notation>
Cc1ccc(C(=O)Nc2cccc(C(F)(F)F)c2)cc1Nc1cncc(C(N)=O)c1

>  <kinase still bound, per cent of control>
100%

$$$$
>  <structure-notation>
COc1cc(N2CCN(C)CC2)ccc1Nc1nc(N)c(C(=O)c2c(Cl)cccc2Cl)s1

>  <kinase still bound, per cent of control>
94%

$$$$

---

Catalogue of molecules with associated kinase still bound, per cent of control
- experimental-system: CDK18 (human) (UniProt Q07002)
- Sequence (Q07002 whole entry, looked up): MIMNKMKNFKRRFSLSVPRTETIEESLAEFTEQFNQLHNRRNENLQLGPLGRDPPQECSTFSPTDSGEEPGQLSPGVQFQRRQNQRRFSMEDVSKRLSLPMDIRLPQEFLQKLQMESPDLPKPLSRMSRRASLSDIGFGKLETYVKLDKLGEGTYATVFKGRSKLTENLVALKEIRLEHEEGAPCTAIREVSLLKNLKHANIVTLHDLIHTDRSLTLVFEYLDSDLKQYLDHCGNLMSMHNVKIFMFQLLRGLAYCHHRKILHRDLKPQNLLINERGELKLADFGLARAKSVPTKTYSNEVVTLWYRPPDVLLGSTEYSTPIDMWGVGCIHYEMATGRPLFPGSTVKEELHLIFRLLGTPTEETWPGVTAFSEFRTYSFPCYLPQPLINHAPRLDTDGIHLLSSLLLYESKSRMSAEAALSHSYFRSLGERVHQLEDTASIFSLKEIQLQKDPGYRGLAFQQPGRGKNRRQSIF
- assay-notes: KINOMEscan competition binding
- test-settings: compound 10.0 µM

>  <structure-notation>
O=C(NC1CC1)c1cccc(-c2ccc3c(NC(=O)C4CC4)n[nH]c3c2)c1

>  <kinase still bound, per cent of control>
58%

$$$$
>  <structure-notation>
Cc1ccc(NC(=O)c2cccc(C(C)(C)C#N)c2)cc1Nc1ccc2ncn(C)c(=O)c2c1

>  <kinase still bound, per cent of control>
100%

$$$$
>  <structure-notation>
Nc1ccc(-c2ccc3ncc4ccc(=O)n(-c5cccc(C(F)(F)F)c5)c4c3c2)cn1

>  <kinase still bound, per cent of control>
100%

$$$$
>  <structure-notation>
CCCS(=O)(=O)Nc1ccc(F)c(C(=O)c2c[nH]c3ncc(-c4ccc(Cl)cc4)cc23)c1F

>  <kinase still bound, per cent of control>
100%

$$$$
>  <structure-notation>
CCOc1cc2ncc(C#N)c(Nc3ccc(OCc4ccccn4)c(Cl)c3)c2cc1NC(=O)/C=C/CN(C)C

>  <kinase still bound, per cent of control>
96%

$$$$
>  <structure-notation>
CN(C)C/C=C/C(=O)Nc1cccc(Nc2ncc3c(n2)N(C)c2ccccc2C(=O)N3C)c1

>  <kinase still bound, per cent of control>
100%

$$$$
>  <structure-notation>
CCC(=O)N1CCN(c2ccc(-n3c(=O)ccc4cnc5ccc(-c6cnc7ccccc7c6)cc5c43)cc2C(F)(F)F)CC1

>  <kinase still bound, per cent of control>
97%

$$$$
>  <structure-notation>
CCN1CCN(Cc2ccc(Nc3ncc4c(n3)N(C)c3ccccc3C(=O)N4C)cc2C(F)(F)F)CC1

>  <kinase still bound, per cent of control>
97%

$$$$
>  <structure-notation>
C[C@@H](Oc1cc(-n2cnc3ccc(CN4CCN(C)CC4)cc32)sc1C(N)=O)c1ccccc1C(F)(F)F

>  <kinase still bound, per cent of control>
100%

$$$$

Cited source for all entries: the kinase profiling compilation of Christmann-Franck et al. (2016)
